Reference source for all entries: paper PMC12897533

assay: cytotoxicity MTT assay; type: cell-based, murine; conditions: mouse, B16F10 melanoma cells, 30 μM, read-out: cell viability
Readout kind: viability at 48 h, 30 µM

Asked: Consider the compound "S=C(NCc1ccc(CNC(=S)Nc2ccc(Cl)cc2)cc1)Nc1ccc(Cl)cc1" and give its recorded viability at 48 h, 30 µM.
Given back: ~50%

---

test: cytotoxicity MTT assay; assay type: cell-based, murine; conditions: mouse, B16F10 melanoma cells, 3 μM, read-out: cell viability
Readout kind: viability at 48 h, 3 µM

Asked: Give the measured viability at 48 h, 3 µM for "S=C(NCc1ccc(CNC(=S)Nc2ccc(Cl)cc2)cc1)Nc1ccc(Cl)cc1"
Given back: ~90%
